pIC50: −log10 of the molar value.
Observed pIC50 for HDAC8 (Homo sapiens, UniProt Q9BY41), reported per entry below.

Below: 3 compounds and their reported pIC50.
[[record]]
compound = "O=C(NO)c1cccc(B2Nc3ccccc3N2)c1 [Compound 30]"
readout_value = 6.70

[[record]]
compound = "Nc1cc(F)ccc1NC(=O)c1ccc(CNCB2C=Cc3ccccc3N2)cc1 [Compound 26]"
readout_value = "< 4.46"

[[record]]
compound = "O=C(CCCCCCNCB1C=Cc2ccccc2N1)NO [Compound 24]"
readout_value = "< 4.46"


Task: Quick check: pIC50 of Nc1ccccc1NC(=O)CCCCc1cn(CB2C=Cc3ccccc3N2)nn1 [Compound 8] ?
Output: < 4.46

Task: Same question, O=C(CCCCCCC(=O)OCB1C=Cc2ccccc2N1)NO [Compound 16d] this time
Output: < 4.46

Task: Same question, O=C(NO)c1cccc(C(=O)OCB2C=Cc3ccccc3N2)c1 [Compound 23] this time
Output: 6.36

Task: Same question, O=C(/C=C/c1ccc(C(=O)NO)cc1)OCB1C=Cc2ccccc2N1 [Compound 18] this time
Output: 6.28

Task: Same question, Nc1ccccc1NC(=O)CCCCCCC(=O)OCB1C=Cc2ccccc2N1 [Compound 17] this time
Output: 4.82
